# credit: patent US20250051338A1

target: TYK2 (Homo sapiens, UniProt P29597); assay: TYK2 degradation MSD assay in human PBMC cells; format: cell-based; design: endogenous in cells; host or cells: human PBMC; conditions: 4 to 24 hours incubation, read-out: TYK2 MSD DC50 rating in human PBMC
Sequence (P29597 whole entry): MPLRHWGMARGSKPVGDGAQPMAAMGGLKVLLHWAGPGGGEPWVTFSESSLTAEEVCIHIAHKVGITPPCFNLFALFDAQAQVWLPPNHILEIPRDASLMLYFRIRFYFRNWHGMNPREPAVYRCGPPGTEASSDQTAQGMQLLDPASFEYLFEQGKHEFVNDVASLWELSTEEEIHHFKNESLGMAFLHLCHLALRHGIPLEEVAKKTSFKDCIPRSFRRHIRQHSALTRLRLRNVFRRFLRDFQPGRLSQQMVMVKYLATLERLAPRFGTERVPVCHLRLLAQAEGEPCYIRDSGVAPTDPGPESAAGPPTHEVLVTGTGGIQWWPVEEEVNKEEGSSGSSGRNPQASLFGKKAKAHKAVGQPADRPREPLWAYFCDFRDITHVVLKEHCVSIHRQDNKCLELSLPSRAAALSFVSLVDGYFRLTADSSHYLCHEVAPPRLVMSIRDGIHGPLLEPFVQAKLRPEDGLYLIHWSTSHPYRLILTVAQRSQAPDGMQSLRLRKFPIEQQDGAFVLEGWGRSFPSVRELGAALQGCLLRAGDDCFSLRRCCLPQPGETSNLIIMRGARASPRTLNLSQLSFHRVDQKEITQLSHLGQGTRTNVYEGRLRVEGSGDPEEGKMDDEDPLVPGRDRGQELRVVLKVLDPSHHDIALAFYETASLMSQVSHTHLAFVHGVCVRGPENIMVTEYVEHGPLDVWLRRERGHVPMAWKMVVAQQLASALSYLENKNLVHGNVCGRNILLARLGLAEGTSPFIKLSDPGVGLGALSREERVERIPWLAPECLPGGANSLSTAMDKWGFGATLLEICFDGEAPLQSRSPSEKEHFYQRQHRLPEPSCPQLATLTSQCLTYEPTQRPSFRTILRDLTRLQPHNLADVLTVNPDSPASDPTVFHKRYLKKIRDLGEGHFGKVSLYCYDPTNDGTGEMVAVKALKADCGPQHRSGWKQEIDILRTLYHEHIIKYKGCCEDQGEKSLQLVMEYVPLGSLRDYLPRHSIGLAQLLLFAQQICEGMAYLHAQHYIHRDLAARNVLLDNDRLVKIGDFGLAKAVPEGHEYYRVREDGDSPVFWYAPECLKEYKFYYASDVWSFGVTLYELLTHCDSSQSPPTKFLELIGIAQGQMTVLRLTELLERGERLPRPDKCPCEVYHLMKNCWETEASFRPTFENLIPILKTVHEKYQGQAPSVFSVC
DC50 values by entry

See these solved cases before continuing.
compound	DC50
CNC(=O)c1cnc(Nc2ccc(C(=O)NCCCCc3cccc4c3n(C)c(=O)n4C3CCC(=O)NC3=O)cn2)cc1Nc1ccccc1S(C)(=O)=O (stereo not drawn)	1 to 10 nM
CCNC(=O)c1cnc(Nc2cc(CN3CCN(c4ccc5c(c4)n(C)c(=O)n5C4CCC(=O)NC4=O)CC3)ccn2)cc1Nc1cccc(-c2ncc(F)cn2)c1OC (stereo not drawn)	> 100 nM

Now for a further compound.
Requested field: DC50. Item: CNc1cc(Nc2cccn(-c3ccc(C(=O)N4CCC(n5cc(-c6ccc7c(c6)n(C)c(=O)n7C6CCC(=O)NC6=O)cn5)CC4)cn3)c2=O)nn2c(C(=O)N[C@@H]3C[C@@H]3F)cnc12 (stereo partly drawn) > 100 nM

----------
# DC50 values compiled below
target: TYK2 (Homo sapiens, UniProt P29597); experiment: TYK2 degradation MSD assay in human PBMC cells; type: cell-based; set-up: endogenous in cells; host or cells: human PBMC; conditions: 4 to 24 hours incubation, read-out: TYK2 MSD DC50 rating in human PBMC

compound	target	property	val
CNC(=O)c1cnc(Nc2cc(C(=O)NCCCCCCc3cccc4c3n(C)c(=O)n4C3CCC(=O)NC3=O)ccn2)cc1Nc1cccc(-c2ncc(F)cn2)c1OC (centres unmarked)	TYK2 (Homo sapiens, UniProt P29597)	DC50	0.001 to 0.01 µM

Query DC50 on TYK2 (Homo sapiens, UniProt P29597) for CNc1cc(Nc2cccc(CN3CCN(c4ccc(-c5ccc6c(c5)n(C)c(=O)n6C5CCC(=O)NC5=O)cc4)CC3)c2OC)nn2c(C(=O)N[C@@H]3C[C@@H]3F)cnc12 (some centres unmarked) > 0.1 µM

Reported DC50 for TYK2 (Homo sapiens, UniProt P29597), given CNc1cc(Nc2cccc(-c3ccc(CN4CCN(C(=O)c5ccc(Cl)c(N6CCC(=O)NC6=O)c5)CC4)cn3)c2OC)nn2c(C(=O)N[C@@H]3C[C@@H]3F)cnc12 ? > 0.1 µM

Lab note: need DC50 with TYK2 (Homo sapiens, UniProt P29597) for entry CNc1cc(Nc2cccn(-c3cccc(C(=O)NCCOCCOCCc4ccc5c(c4)n(C)c(=O)n5C4CCC(=O)NC4=O)c3)c2=O)nn2c(C(=O)N[C@@H]3C[C@@H]3F)cnc12 (some centres unmarked) , please look it up. 0.001 to 0.01 µM

Please tell me: DC50 of CNc1cc(Nc2cccn(-c3ccc(C(=O)NCCCCCCCCc4cncc(N5CCC[C@H](C(=O)Nc6ccc(=O)n(CC(=O)O)c6)C5)c4)cn3)c2=O)nn2c(C(=O)N[C@@H]3C[C@@H]3F)cnc12 , system TYK2 (Homo sapiens, UniProt P29597)? > 0.1 µM

Record lookup: for TYK2 (Homo sapiens, UniProt P29597), what DC50 belongs to CNc1cc(-c2cnn(C3CN(C(=O)NCCCCCCc4ccc5c(c4)n(C)c(=O)n5C4CCC(=O)NC4=O)C3)c2)nn2c(C(=O)N[C@@H]3C[C@@H]3F)cnc12 (some centres unmarked) ? > 0.1 µM

TYK2 (Homo sapiens, UniProt P29597) / DC50 / CNc1cc(Nc2cccc(CN3CCN(Cc4ccc5c(c4)n(C)c(=O)n5C4CCC(=O)NC4=O)CC3)c2)nn2c(C(=O)NC3CC3)cnc12 (centres unmarked) : value? > 0.1 µM

Give the reported DC50 for CNC(=O)c1cnc(Nc2ccc(CN(C)CCCOC3CC(c4ccc5c(c4)n(C)c(=O)n5C4CCC(=O)NC4=O)C3)cn2)cc1Nc1cccc(-c2ncc(F)cn2)c1OC (centres unmarked) (system: TYK2 (Homo sapiens, UniProt P29597)). < 0.001 µM

Entry CNc1cc(Nc2cccc(-c3ccc(CN4CCN(c5ccc6c(c5)n(C)c(=O)n6C5CCC(=O)NC5=O)CC4)cn3)c2)nn2c(C(=O)N[C@@H]3C[C@@H]3F)cnc12 (some centres unmarked) , system TYK2 (Homo sapiens, UniProt P29597): what DC50 was measured? > 0.1 µM

Provide the documented DC50 with TYK2 (Homo sapiens, UniProt P29597) as the system for CNc1cc(Nc2cccn(-c3ccc(C(=O)NCCOCCOCCOCCOCCNc4cncc(N5CCCC(C(=O)Nc6ccc(=O)n(CC(=O)OC)c6)C5)c4)cn3)c2=O)nn2c(C(=O)N[C@@H]3C[C@@H]3F)cnc12 (some centres unmarked) > 0.1 µM

Quick check: DC50 on TYK2 (Homo sapiens, UniProt P29597), item CNC(=O)c1cnc(Nc2ccc(CN(C)C3CN(c4ccc5c(c4)n(C)c(=O)n5C4CCC(=O)NC4=O)C3)cn2)cc1Nc1cccc(-c2ncc(F)cn2)c1OC (centres unmarked) ? < 0.001 µM

Give the reported DC50 for CNc1cc(Nc2cccn(C3CCN(C(=O)COCCOCCOCCOCCc4ccc5c(c4)n(C)c(=O)n5C4CCC(=O)NC4=O)CC3)c2=O)nn2c(C(=O)N[C@@H]3C[C@@H]3F)cnc12 (some centres unmarked) (system: TYK2 (Homo sapiens, UniProt P29597)). 0.01 to 0.1 µM

Please state recorded DC50 (tested on TYK2 (Homo sapiens, UniProt P29597)) of CNc1cc(-c2cnn(C3CCC(CN4CCC(CN(C)c5ccc6c(c5)n(C)c(=O)n6C5CCC(=O)NC5=O)CC4)CC3)c2)nn2c(C(=O)NC3C[C@@H]3F)cnc12 (some centres unmarked) > 0.1 µM

Field: DC50 (TYK2 (Homo sapiens, UniProt P29597)). Entry: CNc1cc(Nc2cccn(-c3ccc(C(=O)N4CCC5(CN(CC#Cc6ccc7c(c6)n(C)c(=O)n7C6CCC(=O)NC6=O)C5)C4)cn3)c2=O)nn2c(C(=O)N[C@@H]3C[C@@H]3F)cnc12 (some centres unmarked) > 0.1 µM

Lab note: need DC50 for COc1c(Nc2cc(C(F)F)c3ncc(C(=O)N[C@@H]4C[C@@H]4F)n3n2)cccc1-c1ccc(CN2CCN(c3ccc(-c4ccc5c(c4)n(C)c(=O)n5C4CCC(=O)NC4=O)cc3)CC2)cn1 (mixture of isomers) on TYK2 (Homo sapiens, UniProt P29597), anyone have it? > 0.1 µM

For the record CNc1cc(Nc2cccc(-c3ccc(CN4CC5(CCN(C(=O)c6ccc(Cl)c(N7CCC(=O)NC7=O)c6)CC5)C4)cn3)c2)nn2c(C(=O)N[C@@H]3C[C@@H]3F)cnc12 , what value of DC50 is listed for TYK2 (Homo sapiens, UniProt P29597)? > 0.1 µM

Form entry - test system: TYK2 (Homo sapiens, UniProt P29597); read-out: DC50; compound: CNc1cc(N2CCc3c(-c4ccc(CN5CCN([C@H]6CC[C@H](c7ccc(-c8ccc9c(c8)n(C)c(=O)n9C8CCC(=O)NC8=O)cc7)CC6)CC5)cn4)cccc32)nn2c(C(=O)N[C@@H]3CC3F)cnc12 (some centres unmarked) > 0.1 µM

Request - read-out DC50 | tested on TYK2 (Homo sapiens, UniProt P29597) | compound CNc1cc(Nc2cccc(-c3ccc(CN4CCN(c5ccc(-c6ccc7c(c6)n(C)c(=O)n7C6CCC(=O)NC6=O)cc5)CC4)cn3)c2F)nn2c(C(=O)N[C@@H]3C[C@@H]3F)cnc12 (some centres unmarked) > 0.1 µM

Give the reported DC50 for CNc1cc(Nc2cccc(N3CCN(CC4CCN(c5ccc(-c6ccc7c(c6)n(C)c(=O)n7C6CCC(=O)NC6=O)cc5)CC4)CC3)c2)nn2c(C(=O)N[C@@H]3C[C@@H]3F)cnc12 (some centres unmarked) (system: TYK2 (Homo sapiens, UniProt P29597)). > 0.1 µM

Hi! What's the reported DC50 for CNc1cc(Nc2cccn(-c3ccc(C(=O)N4CCC(N5CC(N6CCN(c7ccc8c(c7)n(C)c(=O)n8C7CCC(=O)NC7=O)CC6)C5)CC4)cn3)c2=O)nn2c(C(=O)N[C@@H]3C[C@@H]3F)cnc12 (some centres unmarked) on TYK2 (Homo sapiens, UniProt P29597)? > 0.1 µM
